System: RAW-Dual
Assay: NF-kB SEAP reporter activity, fold change vs agonist alone; higher = enhanced NF-kB activity
Settings: library stock concentration (final ~1000-fold dilution): 10 mM; cytotoxicity flag (confluency mask): not cytotoxic; agonist: MPLA (TLR4) […]
The full ranking holds about 2,900 compounds; the median of “NF-kB SEAP reporter activity, fold change vs agonist alone” is about 0.99, and the highest 2% start at about 2.6. This excerpt belongs to a sample that is enriched for the highest values.
quantity_kind: NF-kB SEAP reporter activity
// no unit, no text: just the number

[
  {
    "compound": "CC(C)=CCC[C@](C)(O)[C@H]1CC[C@]2(C)[C@@H]3CCC4C(C)(C)[C@@H](O)CC[C@]4(C)[C@H]3C[C@@H](O)[C@@]12C (some centres not stated)",
    "NF-kB SEAP reporter activity": 1.14
  },
  {
    "compound": "COc1cc2c(cc1Cc1cccc(Cl)c1F)c(=O)c(C(=O)O)cn2C(CO)C(C)C (configuration not stated)",
    "NF-kB SEAP reporter activity": 1.17
  },
  {
    "compound": "CCOC(=O)C(CCc1ccccc1)NC(C)C(=O)N1CCCC1C(=O)O.O=C(O)/C=C\\C(=O)O (configuration not stated)",
    "NF-kB SEAP reporter activity": 1.06
  },
  {
    "compound": "CC(C)CN(CC(O)C(Cc1ccccc1)NC(=O)OC1CCOC1)S(=O)(=O)c1ccc(N)cc1 (configuration not stated)",
    "NF-kB SEAP reporter activity": 1.6
  },
  {
    "compound": "OCCn1cc(-c2ccc3c(c2)CC/C3=N\\O)c(-c2ccncc2)n1",
    "NF-kB SEAP reporter activity": 1.57
  },
  {
    "compound": "COc1cc(F)c(F)c(Nc2ccc(I)cc2F)c1NS(=O)(=O)C1(CC(O)CO)CC1 (configuration not stated)",
    "NF-kB SEAP reporter activity": 0.968
  }
]

Attention now shifts to the item below.
The measured NF-kB SEAP reporter activity associated with COc1ccc(CC(N)C(=O)NC2C(CO)OC(n3cnc4c(N(C)C)ncnc43)C2O)cc1.Cl.Cl (configuration not stated) reads 1.12

* * *

Test system: RAW-Dual
Assay: NF-kB SEAP reporter activity, fold change vs agonist alone; cytotoxicity flag (confluency mask): not cytotoxic; higher = enhanced NF-kB activity
Conditions: agonist: LPS (TLR4) 0.1 ug/mL
In all, about 2,900 compounds were measured (“NF-kB SEAP reporter activity, fold change vs agonist alone”: median about 0.99, highest 2% from about 2.6 on). What follows is part of a selection rich in the highest values, with near analogues and random picks from the rest.
quantity_kind: NF-kB SEAP reporter activity
Give the figure by itself; no unit, no explanation.

Example results:
[
  {
    "compound": "CC(=O)C1CCC2C3CCC4=CC(=O)CCC4(C)C3CCC12C (stereo not drawn) (library stock concentration (final ~1000-fold dilution): 10 mM)",
    "NF-kB SEAP reporter activity": 0.981
  },
  {
    "compound": "Cc1ccc(C(=O)N(CCCN)C(c2oc3cc(Cl)ccc3c(=O)c2Cc2ccccc2)C(C)C)cc1.Cl (stereo not drawn) (library stock concentration (final ~1000-fold dilution): 10 mM)",
    "NF-kB SEAP reporter activity": 0.189
  },
  {
    "compound": "CC1(C)OC2COC3(COS(N)(=O)=O)OC(C)(C)OC3C2O1 (stereo not drawn) (library stock concentration (final ~1000-fold dilution): 10 mM)",
    "NF-kB SEAP reporter activity": 0.898
  },
  {
    "compound": "COc1cc2c(OC3OC(CO)C4OC(C)(C)OC4C3O)c3c(c(-c4ccc5c(c4)OCO5)c2cc1OC)C(=O)OC3 (stereo not drawn) (library stock concentration (final ~1000-fold dilution): 10 mM)",
    "NF-kB SEAP reporter activity": 2.9
  },
  {
    "compound": "COc1ccc(C[C@@H]2c3cc(Oc4cc(C[C@@H]5c6cc(OC)c(OC)cc6CCN5C)ccc4O)c(OC)cc3CCN2C)cc1 (library stock concentration (final ~1000-fold dilution): 10 mM)",
    "NF-kB SEAP reporter activity": 1.06
  },
  {
    "compound": "O=C(Nc1ccc(OC(F)(F)F)cc1)c1sccc1NCc1ccnc2ccccc12 (library stock concentration (final ~1000-fold dilution): 10 mM)",
    "NF-kB SEAP reporter activity": 2.86
  },
  {
    "compound": "NC(=O)c1cccc(-c2cc(Nc3ccc(OC(F)(F)F)cc3)ncn2)c1 (library stock concentration (final ~1000-fold dilution): 10 mM)",
    "NF-kB SEAP reporter activity": 1.21
  }
]

Form: compound = CCOC(=O)C(CCc1ccccc1)NC(C)C(=O)N1C(=O)N(C)CC1C(=O)O.Cl (stereo not drawn) (library stock concentration (final ~1000-fold dilution): 10 mM) ; NF-kB SEAP reporter activity = 1.2

* * *

Let's look at some compounds and their measured NF-kB SEAP reporter activity.
Tested on: RAW-Dual
Experiment: NF-kB SEAP reporter activity, fold change vs agonist alone; cytotoxicity flag (confluency mask): not cytotoxic; higher = enhanced NF-kB activity
Details: agonist: ODN 1826 (TLR9) 0.5 ug/mL
The full ranking holds about 2,900 compounds; the median of “NF-kB SEAP reporter activity, fold change vs agonist alone” is about 0.99, and the highest 2% start at about 2.6. The entries come from a sample that favours the highest values as a whole.
No unit in the answer, please; the number alone is enough.

Would you please look over these solved cases?
[
  {
    "compound": "O=C(O)CSc1nnc(Br)n1-c1ccc(C2CC2)c2ccccc12 (library stock concentration (final ~1000-fold dilution): 10 mM)",
    "quantity_kind": "NF-kB SEAP reporter activity",
    "measured_result": 1.01
  },
  {
    "compound": "CC(C)CC(NC(=O)C1OC1C(=O)O)C(=O)NCCCCNC(=N)N (centres undefined) (library stock concentration (final ~1000-fold dilution): 10 mM)",
    "quantity_kind": "NF-kB SEAP reporter activity",
    "measured_result": 1.01
  },
  {
    "compound": "CC(Nc1cc(F)cc(F)c1)c1cc(C(=O)N(C)C)cc2c(=O)cc(N3CCOCC3)oc12 (centres undefined) (library stock concentration (final ~1000-fold dilution): 10 mM)",
    "quantity_kind": "NF-kB SEAP reporter activity",
    "measured_result": 1.01
  }
]

// NF-kB SEAP reporter activity lookup, compound = O=C(O)CN(CC(=O)O)c1ccccc1OCCOc1ccccc1N(CC(=O)O)CC(=O)O (library stock concentration (final ~1000-fold dilution): 10 mM) , result: 0.989

* * *

Test system: RAW-Dual
Experiment: NF-kB SEAP reporter activity, fold change vs agonist alone; cytotoxicity flag (confluency mask): cytotoxic (confluency <70% of control); higher = enhanced NF-kB activity
Details: agonist: ODN 1826 (TLR9) 0.5 ug/mL
Whole data set: some 2,900 compounds, median “NF-kB SEAP reporter activity, fold change vs agonist alone” near 0.99, cut for the highest 2% near 2.6. Many of the other results were omitted from the sample, so the highest values are more common in it than they were.
Respond with true for NF-kB SEAP reporter activity values of 0.4 and above, false for values below.

[
  {
    "compound": "O=C(/C=C/c1cncc(F)c1)c1c(-c2ccccc2)c2cc(Cl)ccc2[nH]c1=O (library stock concentration (final ~1000-fold dilution): 10 mM)",
    "label_value": "false"
  },
  {
    "compound": "Cc1ccc(NC(=O)Nc2cc(-c3ccccc3-c3nnn[nH]3)ccc2N(CC(C)C)CC(C)C)cc1 (library stock concentration (final ~1000-fold dilution): 10 mM)",
    "label_value": "true"
  },
  {
    "compound": "COc1ncc(-c2cc(-c3ncc(CN4CC(C)OC(C)C4)o3)c3cn[nH]c3c2)cc1NS(C)(=O)=O (stereo not given) (library stock concentration (final ~1000-fold dilution): 10 mM)",
    "label_value": "true"
  }
]

Q) # bool: NF-kB SEAP reporter activity of COc1cc2c(Oc3ccc4[nH]c(C)cc4c3F)ccnc2cc1OCC1(N)CC1.Cl.Cl (library stock concentration (final ~1000-fold dilution): 10 mM) >= 0.4
A) false

* * *

Tested on: RAW-Dual
Assay: NF-kB SEAP reporter activity, fold change vs agonist alone; cytotoxicity flag (confluency mask): not cytotoxic; higher = enhanced NF-kB activity
Conditions: agonist: LPS (TLR4) 0.1 ug/mL
In all, about 2,900 compounds were measured (“NF-kB SEAP reporter activity, fold change vs agonist alone”: median about 0.99, highest 2% from about 2.6 on). The sample as a whole holds a higher share of the highest values than the screen did.
Listing: NF-kB SEAP reporter activity of selected compounds
I only need the number, thanks.

Please review the entries below; each comes with its answer.
[
  {
    "compound": "CCCS(=O)(=O)NC1CC(N(C)c2ncnc3[nH]ccc23)C1 (centres undefined) (library stock concentration (final ~1000-fold dilution): 10 mM)",
    "NF-kB SEAP reporter activity": 0.584
  },
  {
    "compound": "COC1CC2CCC(C)C(O)(O2)C(=O)C(=O)N2CCCCC2C(=O)OC(C(C)CC2CCC(O)C(OC)C2)CC(=O)C(C)C=C(C)C(O)C(OC)C(=O)C(C)CC(C)C=CC=CC=C1C (centres undefined) (library stock concentration (final ~1000-fold dilution): 10 mM)",
    "NF-kB SEAP reporter activity": 1.57
  },
  {
    "compound": "COc1ccc(S(=O)(=O)Nc2cccnc2Nc2ccc(O)cc2)cc1 (library stock concentration (final ~1000-fold dilution): 10 mM)",
    "NF-kB SEAP reporter activity": 4.93
  }
]

response.value for Cl.O=C1Cc2cc(CCN3CCN(c4nsc5ccccc45)CC3)c(Cl)cc2N1 (library stock concentration (final ~1000-fold dilution): 10 mM) (field: NF-kB SEAP reporter activity) = 0.912

Provenance of the data: the supplement of paper PMC10037445
